system: GRN mRNA; experiment: GRN mRNA qPCR in SK-N-AS cells transfected with ASOs; type: cell-based, human; conditions: Table 9; SK-N-AS, 120 nM, 48 hours post-transfection; normalized to CO-1589
Oligonucleotides are written 5' to 3', each unit as a sugar letter and its base; * is a phosphorothioate linkage, no mark a phosphodiester; rarer units and linkages stand in square brackets, end groups in braces. Plain capitals give the bases only. e = 2'-O-(2-methoxyethyl) (MOE); [5mC] = 5-methylcytosine
Quick reference: hGRN mRNA FC of the listed items.

Below are worked cases with known answers.
SUBSTANCE	RESULT
CO-4611: ASO designed to target intergenic enhancers (eRNA) (antisense eT*eA*eT*eT*eA*eA*eT*e[5mC]*e[5mC]*eA*e[5mC]*eG*e[5mC]*eT*eG*eT*e[5mC]*e[5mC]*e[5mC]*eA)	1.4 FC
CO-4636: ASO designed to target intergenic enhancers (eRNA) (antisense eG*eG*e[5mC]*eA*eA*eT*eT*eA*e[5mC]*eA*eT*eA*e[5mC]*eA*eT*eG*eA*eG*eG*eA)	0.9 FC
CO-4645: ASO designed to target intergenic enhancers (eRNA) (antisense eA*e[5mC]*eA*eG*e[5mC]*eA*eG*eA*eA*e[5mC]*eA*eT*e[5mC]*e[5mC]*e[5mC]*eG*eT*eG*eA*eA)	1.4 FC
CO-4589: ASO designed to target intergenic enhancers (eRNA) (antisense e[5mC]*eG*e[5mC]*eA*eG*eG*e[5mC]*eT*eA*eG*eG*eA*eG*eT*eA*e[5mC]*e[5mC]*e[5mC]*eA*eT)	1.1 FC
CO-4598: ASO designed to target intergenic enhancers (eRNA) (antisense eG*eT*eG*e[5mC]*eA*eA*eT*e[5mC]*eT*eG*eT*eG*eA*e[5mC]*e[5mC]*eT*eG*eT*eA*eA)	1.1 FC

Lab note: CO-4625: ASO designed to target intergenic enhancers (eRNA) (antisense eT*e[5mC]*eT*eT*eG*eT*eT*eG*eT*eT*eG*eG*eA*eA*eA*eT*eT*e[5mC]*e[5mC]*e[5mC]) gave hGRN mRNA FC of 1.1 FC

The measured hGRN mRNA FC associated with CO-4594: ASO designed to target intergenic enhancers (eRNA) (antisense eA*eA*eA*eG*eG*eA*e[5mC]*eG*e[5mC]*e[5mC]*eT*eT*e[5mC]*eT*e[5mC]*eT*e[5mC]*eG*eG*eG) reads 1.3 FC

====

Consider the following substances and their measured mGRN mRNA FC readings.
system: mGrn mRNA; experiment: mGrn mRNA qPCR in Neuro2a cells transfected with ASOs; type: cell-based, mouse; settings: Table 14; Neuro2a, 100 nM, 48 hours; normalized to sNTC3
Oligonucleotides are written 5' to 3', each unit as a sugar letter and its base; * is a phosphorothioate linkage, no mark a phosphodiester; rarer units and linkages stand in square brackets, end groups in braces. Plain capitals give the bases only. e = 2'-O-(2-methoxyethyl) (MOE); [5mC] = 5-methylcytosine
Number only, in FC; omit the unit.

SUBSTANCE	OUTPUT UNIT	mGRN mRNA FC
CO-3550: ASO targeting the Grn promoter (− strand) (antisense eG*eG*eT*eT*eG*eT*eG*eT*e[5mC]*eA*eG*e[5mC]*eT*eT*eT*eA*eT*eT*eT*e[5mC])	FC	0.9

Alright, here's another substance for you.
response.value for CO-3595: ASO targeting the Grn promoter (− strand) (antisense e[5mC]*e[5mC]*eT*eG*eA*eA*e[5mC]*eT*eG*eT*eA*eT*eG*eG*e[5mC]*eT*eG*eA*e[5mC]*e[5mC]) (field: mGRN mRNA FC) = 2.3
